Tested on: Bacillus subtilis
Assay type: cell-based
assay-context: B.s.; 37° C for 20 h
Square brackets hold non-standard residues; d marks the D form. Peptide text beside a SMILES is read from it. βAla = NCCC(=O)O
observed-property: Antimicrobial activity MIC

{"compound": "CC[C@H](C)[C@H](NC(=O)[C@H](CCCCN)NC(=O)[C@H](CCCCN)NC(=O)[C@H](CC(C)C)NC(=O)[C@H](CC(C)C)NC(=O)[C@H](CCCCN)NC(=O)[C@H](CCSC)NC(=O)[C@H](Cc1c[nH]c2ccccc12)NC(=O)[C@H](CCCCN)NC(=O)CN)C(=O)N[C@@H](CC(C)C)C(=O)N[C@@H](CCCCN)C(N)=O", "assay-target": "Bacillus subtilis", "observed-property": "Antimicrobial activity MIC", "result": "1,8 µmol.l^-1"}
{"compound": "CC[C@H](C)[C@H](NC(=O)[C@H](CCCCN)NC(=O)[C@H](CCCCN)NC(=O)[C@H](CC(C)C)NC(=O)[C@H](CC(C)C)NC(=O)[C@H](CCCCN)NC(=O)[C@H](CC(C)C)NC(=O)[C@H](Cc1c[nH]c2ccccc12)NC(=O)[C@H](CCCCN)NC(=O)CN)C(=O)N[C@@H](CC(C)C)C(=O)N[C@@H](CCCCN)C(N)=O [Peptide VII] (H-GKWLKLLKKILK-NH2)", "assay-target": "Bacillus subtilis", "observed-property": "Antimicrobial activity MIC", "result": "2,0 µmol.l^-1"}
{"compound": "CC[C@H](C)[C@H](NC(=O)[C@H](CCCCN)NC(=O)[C@H](CCCCN)NC(=O)[C@H](CC(C)C)NC(=O)[C@H](CC(C)C)NC(=O)[C@H](CCCCN)NC(=O)[C@@H](NC(=O)[C@H](Cc1c[nH]c2ccccc12)NC(=O)[C@H](CCCCN)NC(=O)CN)C(C)C)C(=O)N[C@@H](CC(C)C)C(=O)N[C@@H](CCCCN)C(N)=O [Peptide VIII] (H-GKWVKLLKKILK-NH2)", "assay-target": "Bacillus subtilis", "observed-property": "Antimicrobial activity MIC", "result": "2,0 µmol.l^-1"}
{"compound": "CC[C@H](C)[C@H](NC(=O)[C@H](CCCCN)NC(=O)[C@H](CCCCN)NC(=O)[C@H](CC(C)C)NC(=O)[C@H](CCSC)NC(=O)[C@H](CCCCN)NC(=O)[C@H](CCSC)NC(=O)[C@H](Cc1c[nH]c2ccccc12)NC(=O)[C@H](CCCCN)NC(=O)CN)C(=O)N[C@@H](CC(C)C)C(=O)N[C@@H](CCCCN)C(N)=O [XI] (H-GKWMKMLKKILK-NH2)", "assay-target": "Bacillus subtilis", "observed-property": "Antimicrobial activity MIC", "result": "2,5 µmol.l^-1"}
{"compound": "CC[C@H](C)[C@H](NC(=O)[C@H](CCCCN)NC(=O)[C@H](CCCCN)NC(=O)[C@H](CC(C)C)NC(=O)[C@H](CC(C)C)NC(=O)[C@H](CCCCN)NC(=O)[C@H](CCSC)NC(=O)[C@H](Cc1c[nH]c2ccccc12)NC(=O)[C@H](CCCCN)NC(=O)CCN)C(=O)N[C@@H](CC(C)C)C(=O)N[C@@H](CCCCN)C(N)=O [Peptide V] (H-[βAla]KWMKLLKKILK-NH2)", "assay-target": "Bacillus subtilis", "observed-property": "Antimicrobial activity MIC", "result": "1,8 µmol.l^-1"}
{"compound": "CC[C@H](C)[C@H](NC(=O)[C@H](CCCCN)NC(=O)[C@H](CCCCN)NC(=O)[C@@H](CC(C)C)NC(=O)[C@H](CC(C)C)NC(=O)[C@H](CCCCN)NC(=O)[C@H](CCSC)NC(=O)[C@H](Cc1c[nH]c2ccccc12)NC(=O)[C@H](CCCCN)NC(=O)CN)C(=O)N[C@@H](CC(C)C)C(=O)N[C@@H](CCCCN)C(N)=O", "assay-target": "Bacillus subtilis", "observed-property": "Antimicrobial activity MIC", "result": "2,8 µmol.l^-1"}

====

Tested on: MRSA (clin. isolate Motol)
Type: cell-based, Staphylococcus aureus
assay-context: 37° C for 20 h
Peptide text beside a SMILES is read from it.

{"compound": "CC[C@H](C)[C@H](NC(=O)[C@H](CCCCN)NC(=O)[C@H](CCCCN)NC(=O)[C@@H](CC(C)C)NC(=O)[C@H](CC(C)C)NC(=O)[C@H](CCCCN)NC(=O)[C@H](CCSC)NC(=O)[C@H](Cc1c[nH]c2ccccc12)NC(=O)[C@H](CCCCN)NC(=O)CN)C(=O)N[C@@H](CC(C)C)C(=O)N[C@@H](CCCCN)C(N)=O", "Antimicrobial activity MIC": "32,0 µmol.l^-1"}
{"compound": "CC[C@H](C)[C@H](NC(=O)[C@H](CCCCN)NC(=O)[C@H](CCCCN)NC(=O)[C@H](CC(C)C)NC(=O)[C@H](CC(C)C)NC(=O)[C@H](CCCCN)NC(=O)[C@H](CC(C)C)NC(=O)[C@H](Cc1c[nH]c2ccccc12)NC(=O)[C@H](CCCCN)NC(=O)CN)C(=O)N[C@@H](CC(C)C)C(=O)N[C@@H](CCCCN)C(N)=O [Peptide VII] (H-GKWLKLLKKILK-NH2)", "Antimicrobial activity MIC": "10,0 µmol.l^-1"}
{"compound": "CC[C@@H](C)[C@@H](NC(=O)[C@@H](CCCCN)NC(=O)[C@@H](CCCCN)NC(=O)[C@@H](CC(C)C)NC(=O)[C@@H](CC(C)C)NC(=O)[C@@H](CCCCN)NC(=O)[C@@H](CCSC)NC(=O)[C@@H](Cc1c[nH]c2ccccc12)NC(=O)[C@@H](CCCCN)NC(=O)CN)C(=O)N[C@H](CC(C)C)C(=O)N[C@H](CCCCN)C(N)=O", "Antimicrobial activity MIC": "9,7 µmol.l^-1"}
{"compound": "CC[C@H](C)[C@H](NC(=O)[C@H](CCCCN)NC(=O)[C@H](CCCCN)NC(=O)[C@H](CC(C)C)NC(=O)[C@H](CC(C)C)NC(=O)[C@H](CCCCN)NC(=O)[C@H](CCSC)NC(=O)[C@H](Cc1c[nH]c2ccccc12)NC(=O)[C@@H](N)CCCCN)C(=O)N[C@@H](CC(C)C)C(=O)N[C@@H](CCCCN)C(N)=O [I] (H-KWMKLLKKILK-NH2)", "Antimicrobial activity MIC": "17,7 µmol.l^-1"}
{"compound": "CC[C@H](C)[C@H](NC(=O)[C@H](CCCCN)NC(=O)[C@H](CCCCN)NC(=O)[C@H](CC(C)C)NC(=O)[C@H](CC(C)C)NC(=O)[C@H](CCCCN)NC(=O)[C@@H](NC(=O)[C@H](Cc1c[nH]c2ccccc12)NC(=O)[C@H](CCCCN)NC(=O)CN)C(C)C)C(=O)N[C@@H](CC(C)C)C(=O)N[C@@H](CCCCN)C(N)=O [Peptide VIII] (H-GKWVKLLKKILK-NH2)", "Antimicrobial activity MIC": "10,0 µmol.l^-1"}
{"compound": "CC[C@H](C)[C@H](NC(=O)[C@H](CCCCN)NC(=O)[C@H](CCCCN)NC(=O)[C@H](CC(C)C)NC(=O)[C@H](CC(C)C)NC(=O)[C@H](CCCCN)NC(=O)[C@H](CCCCN)NC(=O)[C@H](Cc1c[nH]c2ccccc12)NC(=O)[C@H](CCCCN)NC(=O)CN)C(=O)N[C@@H](CC(C)C)C(=O)N[C@@H](CCCCN)C(N)=O [X] (H-GKWKKLLKKILK-NH2)", "Antimicrobial activity MIC": "25,3 µmol.l^-1"}

====

Test system: Escherichia coli
Type: cell-based
assay-context: E.c.; 37° C for 20 h
Square brackets hold non-standard residues; d marks the D form. Peptide text beside a SMILES is read from it. Met(O) = CS(=O)CC[C@H](N)C(=O)O; βAla = NCCC(=O)O

{"compound": "CC[C@H](C)[C@H](NC(=O)[C@H](CCCCN)NC(=O)[C@H](CCCCN)NC(=O)[C@H](CC(C)C)NC(=O)[C@H](CC(C)C)NC(=O)[C@H](CCCCN)NC(=O)[C@H](CCSC)NC(=O)[C@H](Cc1c[nH]c2ccccc12)NC(=O)[C@H](CCCCN)NC(=O)CN)C(=O)N[C@@H](CC(C)C)C(=O)N[C@@H](CCCCN)C(N)=O", "Antimicrobial activity MIC": "9,0 µmol.l^-1"}
{"compound": "CC[C@@H](C)[C@@H](NC(=O)[C@@H](CCCCN)NC(=O)[C@@H](CCCCN)NC(=O)[C@@H](CC(C)C)NC(=O)[C@@H](CC(C)C)NC(=O)[C@@H](CCCCN)NC(=O)[C@@H](CCSC)NC(=O)[C@@H](Cc1c[nH]c2ccccc12)NC(=O)[C@@H](CCCCN)NC(=O)CN)C(=O)N[C@H](CC(C)C)C(=O)N[C@H](CCCCN)C(N)=O", "Antimicrobial activity MIC": "3,0 µmol.l^-1"}
{"compound": "CC[C@H](C)[C@H](NC(=O)[C@H](CCCCN)NC(=O)[C@H](CCCCN)NC(=O)[C@@H](CC(C)C)NC(=O)[C@H](CC(C)C)NC(=O)[C@H](CCCCN)NC(=O)[C@H](CCSC)NC(=O)[C@H](Cc1c[nH]c2ccccc12)NC(=O)[C@H](CCCCN)NC(=O)CN)C(=O)N[C@@H](CC(C)C)C(=O)N[C@@H](CCCCN)C(N)=O", "Antimicrobial activity MIC": "10,0 µmol.l^-1"}
{"compound": "CC[C@H](C)[C@H](NC(=O)[C@H](CCCCN)NC(=O)[C@H](CCCCN)NC(=O)[C@H](CC(C)C)NC(=O)[C@H](CC(C)C)NC(=O)[C@H](CCCCN)NC(=O)[C@H](CC(C)C)NC(=O)[C@H](Cc1c[nH]c2ccccc12)NC(=O)[C@H](CCCCN)NC(=O)CN)C(=O)N[C@@H](CC(C)C)C(=O)N[C@@H](CCCCN)C(N)=O [Peptide VII] (H-GKWLKLLKKILK-NH2)", "Antimicrobial activity MIC": "5,0 µmol.l^-1"}
{"compound": "CC[C@H](C)[C@H](NC(=O)[C@H](CCCCN)NC(=O)[C@H](CCCCN)NC(=O)[C@H](CC(C)C)NC(=O)[C@H](CC(C)C)NC(=O)[C@H](CCCCN)NC(=O)[C@@H](NC(=O)[C@H](Cc1c[nH]c2ccccc12)NC(=O)[C@H](CCCCN)NC(=O)CN)C(C)C)C(=O)N[C@@H](CC(C)C)C(=O)N[C@@H](CCCCN)C(N)=O [Peptide VIII] (H-GKWVKLLKKILK-NH2)", "Antimicrobial activity MIC": "6,3 µmol.l^-1"}
{"compound": "CC[C@H](C)[C@H](NC(=O)[C@H](CCCCN)NC(=O)[C@H](CCCCN)NC(=O)[C@H](CC(C)C)NC(=O)[C@H](CC(C)C)NC(=O)[C@H](CCCCN)NC(=O)[C@H](CCSC)NC(=O)[C@H](Cc1c[nH]c2ccccc12)NC(=O)[C@H](CCCCN)NC(=O)CCN)C(=O)N[C@@H](CC(C)C)C(=O)N[C@@H](CCCCN)C(N)=O [Peptide V] (H-[βAla]KWMKLLKKILK-NH2)", "Antimicrobial activity MIC": "6,8 µmol.l^-1"}
{"compound": "CC[C@H](C)[C@H](NC(=O)[C@H](CCCCN)NC(=O)[C@H](CCCCN)NC(=O)[C@H](CC(C)C)NC(=O)[C@H](CCSC)NC(=O)[C@H](CCCCN)NC(=O)[C@H](CCSC)NC(=O)[C@H](Cc1c[nH]c2ccccc12)NC(=O)[C@H](CCCCN)NC(=O)CN)C(=O)N[C@@H](CC(C)C)C(=O)N[C@@H](CCCCN)C(N)=O [XI] (H-GKWMKMLKKILK-NH2)", "Antimicrobial activity MIC": "20,0 µmol.l^-1"}
{"compound": "CC[C@H](C)[C@H](NC(=O)[C@H](CCCCN)NC(=O)[C@H](CCCCN)NC(=O)[C@H](CC(C)C)NC(=O)[C@H](CC(C)C)NC(=O)[C@H](CCCCN)NC(=O)[C@H](CCSC)NC(=O)[C@H](Cc1c[nH]c2ccccc12)NC(=O)[C@@H](N)CCCCN)C(=O)N[C@@H](CC(C)C)C(=O)N[C@@H](CCCCN)C(N)=O [I] (H-KWMKLLKKILK-NH2)", "Antimicrobial activity MIC": "12,7 µmol.l^-1"}
{"compound": "CC[C@H](C)[C@H](NC(=O)[C@H](CCCCN)NC(=O)[C@H](CCCCN)NC(=O)[C@H](CC(C)C)NC(=O)[C@H](CC(C)C)NC(=O)[C@H](CCCCN)NC(=O)[C@H](CC[S+](C)[O-])NC(=O)[C@H](Cc1c[nH]c2ccccc12)NC(=O)[C@H](CCCCN)NC(=O)CN)C(=O)N[C@@H](CC(C)C)C(=O)N[C@@H](CCCCN)C(N)=O (stereo partly shown) [XII] (H-GKW[Met(O)]KLLKKILK-NH2)", "Antimicrobial activity MIC": "26,7 µmol.l^-1"}
{"compound": "CC[C@H](C)[C@H](NC(=O)[C@H](CCCCN)NC(=O)[C@H](CCCCN)NC(=O)[C@H](CC(C)C)NC(=O)[C@H](CC(C)C)NC(=O)[C@H](CCCCN)NC(=O)[C@H](CCCCN)NC(=O)[C@H](Cc1c[nH]c2ccccc12)NC(=O)[C@H](CCCCN)NC(=O)CN)C(=O)N[C@@H](CC(C)C)C(=O)N[C@@H](CCCCN)C(N)=O [X] (H-GKWKKLLKKILK-NH2)", "Antimicrobial activity MIC": "11,5 µmol.l^-1"}

Where do the numbers come from? From patent EP3570868B1.
